# Lookup of reported log10(Ki) keyed by entry
Target: UniProtKB O42275
Test: Uncompetitive inhibition of electric eel AChE using acetylthiocholine iodide as substrate preincubated for 20 mins followed by substrate addition measured every 1 min for 30 mins by Cornish-Bowden plot method
endpoint-name: log10(Ki) (log10 of the value in µM)

# smiles-input, endpoint-name, reported-result
rows = [
    ("CC(=O)[C@@H]1CC[C@]2(C(=O)OCc3ccccc3)CC[C@]3(C)[C@H](CC[C@@H]4[C@@]5(C)CC[C@H](N)C(C)(C)[C@@H]5CC[C@]43C)[C@@H]12", "log10(Ki)", 1.88),
    ("CC(=O)O[C@H]1CC[C@]2(C)[C@H]3CC[C@@H]4[C@H]5[C@H](C(C)=O)CC[C@]5(C(=O)NCCN)CC[C@@]4(C)[C@]3(C)CC[C@H]2C1(C)C", "log10(Ki)", 0.83),
    ("CC(=O)O[C@H]1CC[C@]2(C)[C@H]3CC[C@@H]4[C@H]5[C@H](C(C)=O)CC[C@]5(C(=O)OCc5ccccc5)CC[C@@]4(C)[C@]3(C)CC[C@H]2C1(C)C", "log10(Ki)", -0.68),
    ("CC(=O)[C@@H]1CC[C@]2(C(=O)NCCN)CC[C@]3(C)[C@H](CC[C@@H]4[C@@]5(C)CC[C@H](O)C(C)(C)[C@@H]5CC[C@]43C)[C@@H]12", "log10(Ki)", 0.99),
    ("CC(=O)[C@@H]1CC[C@]2(C(=O)OCc3ccccc3)CC[C@]3(C)[C@H](CC[C@@H]4[C@@]5(C)CCC(=O)C(C)(C)[C@@H]5CC[C@]43C)[C@@H]12", "log10(Ki)", 0.66),
]

* * *

Target: Acetylcholinesterase (Homo sapiens)
Sequence (P22303 whole entry): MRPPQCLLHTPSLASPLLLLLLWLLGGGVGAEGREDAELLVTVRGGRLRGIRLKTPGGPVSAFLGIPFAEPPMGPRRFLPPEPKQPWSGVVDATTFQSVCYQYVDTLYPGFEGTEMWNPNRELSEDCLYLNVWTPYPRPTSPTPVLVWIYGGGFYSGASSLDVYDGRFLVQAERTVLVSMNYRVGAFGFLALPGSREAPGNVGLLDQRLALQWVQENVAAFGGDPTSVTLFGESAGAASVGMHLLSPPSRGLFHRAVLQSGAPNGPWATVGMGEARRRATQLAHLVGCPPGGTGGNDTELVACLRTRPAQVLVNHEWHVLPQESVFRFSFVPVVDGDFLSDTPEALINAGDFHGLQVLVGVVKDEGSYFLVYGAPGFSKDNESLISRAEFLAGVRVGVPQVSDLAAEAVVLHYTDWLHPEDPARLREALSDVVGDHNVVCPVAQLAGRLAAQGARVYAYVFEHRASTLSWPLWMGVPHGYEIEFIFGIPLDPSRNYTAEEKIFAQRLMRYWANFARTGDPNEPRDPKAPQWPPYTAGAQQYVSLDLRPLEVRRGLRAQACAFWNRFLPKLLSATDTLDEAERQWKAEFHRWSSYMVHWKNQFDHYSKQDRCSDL
Assay: Inhibition of […] using acetyl-(beta-methyl)thiocholine as substrate preincubated for 30 mins followed by substrate addition measured after 25 mins by spectrophotometric method
pIC50: −log10 of the molar value.

# smiles-input, pIC50
data = [
    ("CC(C)c1ccc(NC(=O)Oc2ccc3c(c2)[C@]2(C)CCN[C@@H]2N3)cc1", 6.96),
]

* * *

Target: Acetylcholinesterase (Electrophorus electricus, UniProt O42275)
Sequence (O42275 whole entry): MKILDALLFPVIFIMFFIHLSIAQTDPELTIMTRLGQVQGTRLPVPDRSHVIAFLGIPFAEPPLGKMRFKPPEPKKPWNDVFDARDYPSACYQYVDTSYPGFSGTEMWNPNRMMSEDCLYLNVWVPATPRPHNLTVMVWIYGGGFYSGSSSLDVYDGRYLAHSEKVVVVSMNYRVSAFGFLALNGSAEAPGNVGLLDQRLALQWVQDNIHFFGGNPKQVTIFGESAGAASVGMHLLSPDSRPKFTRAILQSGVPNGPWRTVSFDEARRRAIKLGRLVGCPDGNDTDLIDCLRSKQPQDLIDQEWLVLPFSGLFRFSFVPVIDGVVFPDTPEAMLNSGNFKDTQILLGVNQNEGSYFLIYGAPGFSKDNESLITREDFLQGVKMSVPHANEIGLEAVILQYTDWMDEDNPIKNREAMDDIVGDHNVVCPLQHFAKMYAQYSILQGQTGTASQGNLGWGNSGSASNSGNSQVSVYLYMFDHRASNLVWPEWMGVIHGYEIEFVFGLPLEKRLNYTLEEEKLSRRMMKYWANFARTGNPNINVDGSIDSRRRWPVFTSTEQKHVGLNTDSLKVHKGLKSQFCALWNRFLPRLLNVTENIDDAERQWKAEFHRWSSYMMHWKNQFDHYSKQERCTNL
Assay: Competitive inhibition of electric eel AChE using acetylthiocholine iodide as substrate preincubated for 20 mins followed by substrate addition measured every 1 min for 30 mins by Dixon plot method

# smiles-input, inequality-symbol, Ki / µM
records = [
    ("COC(=O)[C@]12CC[C@@H](C(C)=O)[C@@H]1[C@H]1CC[C@@H]3[C@@]4(C)CC[C@H](O)C(C)(C)[C@@H]4CC[C@@]3(C)[C@]1(C)CC2", "=", 0.76),
    ("COC(=O)[C@]12CC[C@@H]([C@@H](C)N)[C@@H]1[C@H]1CC[C@@H]3[C@@]4(C)CC[C@H](OC(C)=O)C(C)(C)[C@@H]4CC[C@@]3(C)[C@]1(C)CC2", ">", 4),
    ("CC(=O)O[C@H]1CC[C@]2(C)[C@H]3CC[C@@H]4[C@H]5[C@H]([C@H](C)N)CC[C@]5(C(=O)OCc5ccccc5)CC[C@@]4(C)[C@]3(C)CC[C@H]2C1(C)C", "=", 10.7),
    ("COC(=O)[C@]12CC[C@@H]([C@@H](C)NC(C)=O)[C@@H]1[C@H]1CC[C@@H]3[C@@]4(C)CC[C@H](OC(C)=O)C(C)(C)[C@@H]4CC[C@@]3(C)[C@]1(C)CC2", ">", 4),
    ("CC(=O)OC[C@]12CC[C@@H]([C@@H](C)N)[C@@H]1[C@H]1CC[C@@H]3[C@@]4(C)CC[C@H](OC(C)=O)C(C)(C)[C@@H]4CC[C@@]3(C)[C@]1(C)CC2", "=", 4.5),
]
